- tested.target: T1, 4H3172-bA
- T1 chain: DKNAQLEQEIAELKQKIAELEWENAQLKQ
- experimental.protocol: two-hybrid library CCNG1;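 also: natural log of median RNA to DNA barcode read ratio; higher means stronger binding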
test.readout: interaction score

{"binder": "DENAQLEQKIAELKQKNAELEWEIAQLEQ [4H1393-bA]", "test.readout": "interaction score", "meas.value": -1.3}
{"binder": "DENAQLKQEIAELKQENAELKWKIAQLEQ [4H1629-bA]", "test.readout": "interaction score", "meas.value": -0.887}

(P) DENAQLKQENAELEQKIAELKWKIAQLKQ [4H1710-bA]
(Q) DKNAQLEQEIAELKQKIAELEWENAQLKQ [4H3172-bA]
Problem: Could you kindly indicate whether P or Q has the higher interaction score value? // return label of chosen record
Result: Q
(Q: 1.36, P: -0.97)

The reported measurements were obtained from paper PMC10397247.
